Form field: Kd (one value per entry).
Molecular target: T1, human TREM2 expressed on cells (human, UniProt Q9NZC2 19-230)
T1 construct: BW5147.G.1.4 cells stably expressing human TREM2 together with Dap12, or endogenous TREM2 of primary human myeloid cells; also called huT2 BW; hTREM2 expressing cell line
T1 sequence: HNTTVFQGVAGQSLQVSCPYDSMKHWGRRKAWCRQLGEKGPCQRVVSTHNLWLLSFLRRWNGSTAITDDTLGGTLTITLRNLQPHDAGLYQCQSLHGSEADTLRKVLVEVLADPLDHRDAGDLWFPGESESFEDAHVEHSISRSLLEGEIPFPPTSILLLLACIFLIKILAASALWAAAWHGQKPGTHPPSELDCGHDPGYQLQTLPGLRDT
Assay: FACS, hTREM2 BW cells
measured.metric: Kd (nM)

1) AL2p-6 (antibody, V domains shown, AL2p-h50 variant; Fab and IgG formats under one id) VH: QVQLVQSGAEVKKPGSSVKVSCKASGYAFSSSWMNWVRQAPGQGLEWMGRIYPGDGDTNYAQKFQGRVTITADESTSTAYMELSSLRSEDTAVYYCARLLRNQPGESYAMDYWGQGTLVTVSS VL: DVVMTQTPLSLSVTPGQPASISCRSSQSLVHSNWYTYLHWYLQKPGQSPQLLIYKVSNRFSGVPDRFSGSGSGTDFTLKISRVEAEDVGVYYCSQSTRVPYTFGQGTKLEIK ... 4.2
2) AL2p-62 (antibody, V domains shown, Fab and IgG formats under one id) VH: QVQLVQSGAEVKKPGASVKVSCKASGYAFSSQWMNWVRQAPGQRLEWIGRIYPGEGDTNYAGKFQGRVTITADTSASTAYMELSSLRSEDTAVYYCARLLRNQPGESYAMDYWGQGTLVTVSS VL: DVVMTQSPDSLAVSLGERATINCRSSQSLVHSNQYTYLHWYQQKPGQSPKLLIYKVSNRFSGVPDRFSGSGSGTDFTLTISSLQAEDVAVYYCSQSTRVPYTFGGGTKVEIK ... 2.63
